tested on: isolated rabbit urethra; assay: Effects on the isolated rabbit urethra (contraction, in vitro); format: cell-based; conditions: Oryctolagus cuniculus, read-out: Urethra, in vitro: Max. contraction, female rabbit urethra rings; cumulative addition (12 concentrations); reference noradrenaline 6×10^-5 M; Krebs solution, 37° C.
Structures can show the parent of a compound that is named as a salt.
Emax values for the molecules below.
METRIC: Emax (%)

[
  {
    "MOLECULE": "CC(C)Sc1c(Cl)cccc1C(O)CN(C)C (stereo not shown) [Compound 13, hydrochloride]",
    "QUANTITATIVE_READOUT": 45
  },
  {
    "MOLECULE": "CCN(C)CC(O)c1cccc(Cl)c1OC(C)C.Cl (stereo not shown) [Compound 11, hydrochloride]",
    "QUANTITATIVE_READOUT": 100
  },
  {
    "MOLECULE": "CCN(CC)CC(O)c1cccc(OC)c1OC(C)C (stereo not shown)",
    "QUANTITATIVE_READOUT": 105
  },
  {
    "MOLECULE": "COc1cccc(C(O)CN(C)C)c1OC(C)C (single isomer, unassigned) [Compound 6:3]",
    "QUANTITATIVE_READOUT": 106
  },
  {
    "MOLECULE": "Cc1cccc(C(O)CN(C)C)c1OC(C)C (stereo not shown) [Compound 1, hydrochloride]",
    "QUANTITATIVE_READOUT": 85
  },
  {
    "MOLECULE": "COc1cccc(C(O)CN(C)C)c1OC(C)C (stereo not shown) [Compound 4]",
    "QUANTITATIVE_READOUT": 95
  },
  {
    "MOLECULE": "CCOc1c(Cl)cccc1C(O)CN(C)C.Cl (stereo not shown) [Compound 2, hydrochloride]",
    "QUANTITATIVE_READOUT": 105
  },
  {
    "MOLECULE": "CCN(CC)CC(O)c1cccc(Cl)c1OC(C)C (stereo not shown)",
    "QUANTITATIVE_READOUT": 81
  },
  {
    "MOLECULE": "CC(C)Oc1c(Cl)cccc1C(O)CN(C)C.Cl (stereo not shown) [Compound 9, hydrochloride]",
    "QUANTITATIVE_READOUT": 79
  },
  {
    "MOLECULE": "C=CCOc1c(OC)cccc1C(O)CN(C)C (stereo not shown)",
    "QUANTITATIVE_READOUT": 104
  }
]

----------
system: isolated rabbit urethra; test: Effects on the isolated rabbit urethra (contraction, in vitro); assay type: cell-based; conditions: Oryctolagus cuniculus, read-out: Urethra, in vitro: Max. contraction, female rabbit urethra rings; cumulative addition (12 concentrations); reference noradrenaline 6×10^-5 M; Krebs solution, 37° C.
Counter-ions that a name gives are not always drawn.

[
  {
    "COMPOUND": "COc1cccc(C(O)CN(C)C)c1SC(C)C (stereo not drawn) [Compound 14, hydrochloride]",
    "READING_UNIT": "%",
    "Emax": 67
  },
  {
    "COMPOUND": "CC(C)Oc1c(C(O)CN(C)C)cccc1[N+](=O)[O-] (stereo not drawn) [Compound 12, hydrochloride]",
    "READING_UNIT": "%",
    "Emax": 80
  },
  {
    "COMPOUND": "CC(N)C(O)c1ccccc1 (stereo not drawn) [PPA, phenylpropanolamine, reference compound]",
    "READING_UNIT": "%",
    "Emax": 60
  }
]

----------
Some compounds, each annotated with its measured pEC50.
system: isolated rabbit urethra; assay: Effects on the isolated rabbit urethra (contraction, in vitro); type: cell-based; conditions: Oryctolagus cuniculus; female rabbit urethra rings; cumulative addition; Krebs solution, 37° C.; read-out: Urethra, in vitro: EC50-value (effective concentration inducing a half maximum contraction)
pEC50: −log10 of the molar value. Counter-ions that a name gives are not always drawn.
METRIC: pEC50

[
  {
    "COMPOUND": "NC[C@H](O)c1ccc(O)c(O)c1 [Noradrenaline, noradrenaline, reference compound]",
    "METRIC": "pEC50",
    "QUANTITATIVE_READOUT": 4.80
  },
  {
    "COMPOUND": "CC(C)Oc1c(Cl)cccc1C(O)CN1CCCC1 (stereo not drawn)",
    "METRIC": "pEC50",
    "QUANTITATIVE_READOUT": 4.92
  },
  {
    "COMPOUND": "COc1cccc(C(O)CN2CCCC2)c1OC(C)C (stereo not drawn) [Compound 5, hydrochloride]",
    "METRIC": "pEC50",
    "QUANTITATIVE_READOUT": 3.96
  }
]

----------
Test system: isolated rabbit urethra
Assay: Effects on the isolated rabbit urethra (contraction, in vitro)
Assay type: cell-based
Conditions: read-out: Urethra, in vitro: EC50-value (effective concentration inducing a half maximum contraction); female rabbit urethra rings; cumulative addition; Krebs solution, 37° C.
Protocol: Female rabbits weighing 2.5-3.0 kg were sacrificed and exsanguinated. The urethra and portal vein were dissected out and suspended in organ baths containing oxygenated Krebs solution at 37° C. Two rings of urethra (4 mm broad) and two longitudinal strips of the portal vein were used. The basal tension was adjusted to about 10 mN after an equilibration time of 60 minutes. Isometric tension was recorded via a force transducer (Statham FT03) and registered on a Grass polygraph model 7. […]

[
  {
    "COMPOUND": "COc1cccc(C(O)CN(C)C)c1OC(C)C (single isomer, unassigned) [Compound 6:4]",
    "TARGET": "isolated rabbit urethra",
    "READING_UNIT": "µM",
    "EC50": 61
  },
  {
    "COMPOUND": "CC(C)Oc1c(Cl)cccc1C(O)CN(C)C (single isomer, unassigned; (-)) [Compound 6:1]",
    "TARGET": "isolated rabbit urethra",
    "READING_UNIT": "µM",
    "EC50": 21
  },
  {
    "COMPOUND": "COc1cccc(C(O)CN(C)C)c1OC(C)C (single isomer, unassigned) [Compound 6:3]",
    "TARGET": "isolated rabbit urethra",
    "READING_UNIT": "µM",
    "EC50": 6.5
  },
  {
    "COMPOUND": "CC(C)Oc1c(Cl)cccc1C(O)CN(C)C (single isomer, unassigned; (+)) [Compound 6:2]",
    "TARGET": "isolated rabbit urethra",
    "READING_UNIT": "µM",
    "EC50": 4.5
  }
]

----------
Reported Blood pressure; max change, in % by item:
system: blood pressure in anaesthetized rabbits; assay: Effects on blood pressure in anaesthetized rabbits; assay type: in vivo, rabbit; conditions: i.v. injections of different doses, femoral artery catheter

[
  {
    "COMPOUND": "CC(N)C(O)c1ccccc1 (stereo not drawn) [PPA, phenylpropanolamine, reference compound]",
    "TARGET": "blood pressure in anaesthetized rabbits",
    "Blood pressure; max change, in % (%)": 72
  },
  {
    "COMPOUND": "COc1cccc(C(O)CN(C)C)c1OC(C)C (single isomer, unassigned) [Compound 6:3]",
    "TARGET": "blood pressure in anaesthetized rabbits",
    "Blood pressure; max change, in % (%)": 14
  },
  {
    "COMPOUND": "COc1cccc(C(O)CN(C)C)c1OC(C)C (stereo not drawn) [Compound 4]",
    "TARGET": "blood pressure in anaesthetized rabbits",
    "Blood pressure; max change, in % (%)": 10
  },
  {
    "COMPOUND": "CC(C)Oc1c(Cl)cccc1C(O)CN1CCCC1 (stereo not drawn) [Compound 7]",
    "TARGET": "blood pressure in anaesthetized rabbits",
    "Blood pressure; max change, in % (%)": -3
  },
  {
    "COMPOUND": "CCOc1c(Cl)cccc1C(O)CN(C)C.Cl (stereo not drawn) [Compound 2]",
    "TARGET": "blood pressure in anaesthetized rabbits",
    "Blood pressure; max change, in % (%)": 9
  },
  {
    "COMPOUND": "COc1cccc(C(O)CN(C)C)c1OC(C)C (single isomer, unassigned) [Compound 6:4]",
    "TARGET": "blood pressure in anaesthetized rabbits",
    "Blood pressure; max change, in % (%)": 11
  },
  {
    "COMPOUND": "CCN(C)CC(O)c1cccc(Cl)c1OC(C)C.Cl (stereo not drawn) [Compound 11]",
    "TARGET": "blood pressure in anaesthetized rabbits",
    "Blood pressure; max change, in % (%)": 34
  },
  {
    "COMPOUND": "CC(C)Oc1c(Cl)cccc1C(O)CN(C)C.Cl (stereo not drawn) [Compound 9]",
    "TARGET": "blood pressure in anaesthetized rabbits",
    "Blood pressure; max change, in % (%)": 14
  },
  {
    "COMPOUND": "CCN(CC)CC(O)c1cccc(OC)c1OC(C)C (stereo not drawn) [Compound 3]",
    "TARGET": "blood pressure in anaesthetized rabbits",
    "Blood pressure; max change, in % (%)": -2
  }
]
